- System Under Test: Gastrin/cholecystokinin type B receptor (Homo sapiens)
- Assay Summary: Binding affinity to CCK2R (unknown origin) expressed in human A431 cells assessed as receptor-mediated drug internalization at 5 kBq incubated 4 hrs using 177Lu labeled compound by gamma counting method relative to control
- Type: cell-based
*1 amine or outer side, *2 acyl side, *3 side chain or, on linkers, in order; H or OH if unused. Where a SMILES comes first, the peptide text is derived from it. [ ]: non-standard residue; d: D form. The star is where a group is joined. DOTA = O=C(O)CN1CCN(CC(=O)O)CCN(CC(=O)*)CCN(CC(=O)O)CC1; X1 = O=C(Cn1cc([C@H](Cc2ccc(O)cc2)N[*:1])nn1)[*:2]; Nle = CCCC[C@H](N)C(=O)O
Property Name: Drug uptake

compound="CCCC[C@H](NC(=O)[C@H](Cc1c[nH]c2ccccc12)NC(=O)Cn1cc([C@H](Cc2ccc(O)cc2)NC(=O)[C@H](C)NC(=O)[C@@H](CCC(=O)O)NC(=O)CN2CCN(CC(=O)O)CCN(CC(=O)O)CCN(CC(=O)O)CC2)nn1)C(=O)N[C@@H](CC(=O)O)C(=O)N[C@@H](Cc1ccccc1)C(N)=O ({DOTA}-[dE]A[X1]W[Nle]DF-NH2)" reading=31%
compound="CCCC[C@H](NC(=O)[C@H](Cc1c[nH]c2ccccc12)NC(=O)CNC(=O)[C@H](Cc1ccc(O)cc1)NC(=O)[C@H](C)NC(=O)[C@@H](CCC(=O)O)NC(=O)CN1CCN(CC(=O)O)CCN(CC(=O)O)CCN(CC(=O)O)CC1)C(=O)N[C@@H](CC(=O)O)C(=O)N[C@@H](Cc1ccccc1)C(N)=O ({DOTA}-[dE]AYGW[Nle]DF-NH2)" reading=11.7%
